Measured Binding affinity on Estrogen receptor beta (Homo sapiens) (UniProt Q92731) follows.
Sequence (Q92731 whole entry): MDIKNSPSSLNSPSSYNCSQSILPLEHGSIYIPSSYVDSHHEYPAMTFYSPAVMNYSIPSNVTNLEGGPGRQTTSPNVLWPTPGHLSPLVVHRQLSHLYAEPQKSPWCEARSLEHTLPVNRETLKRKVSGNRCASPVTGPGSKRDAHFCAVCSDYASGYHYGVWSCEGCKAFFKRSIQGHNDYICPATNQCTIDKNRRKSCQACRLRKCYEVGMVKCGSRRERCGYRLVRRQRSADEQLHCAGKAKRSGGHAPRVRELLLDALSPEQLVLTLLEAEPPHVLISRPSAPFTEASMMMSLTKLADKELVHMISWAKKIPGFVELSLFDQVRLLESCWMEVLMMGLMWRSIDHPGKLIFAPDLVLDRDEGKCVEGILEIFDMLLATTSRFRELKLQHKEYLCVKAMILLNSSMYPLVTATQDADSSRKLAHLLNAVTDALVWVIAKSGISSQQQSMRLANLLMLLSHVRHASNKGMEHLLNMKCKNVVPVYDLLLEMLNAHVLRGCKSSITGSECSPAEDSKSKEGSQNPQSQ
outcome-measure: Binding affinity

[[record]]
smiles_string = "Cc1nc2c(-c3ccc(O)cc3)c(-c3ccccc3)nn2c(C)c1C"
assay_system = "Estrogen receptor beta (Homo sapiens) (UniProt Q92731)"
result_comparator = "="
value = 0.01

[[record]]
smiles_string = "Cc1cc(C)n2nc(-c3ccc(O)cc3)c(-c3ccc(O)cc3)c2n1"
assay_system = "Estrogen receptor beta (Homo sapiens) (UniProt Q92731)"
result_comparator = "="
value = 0.07

[[record]]
smiles_string = "Cc1cc(C)n2nc(-c3ccc(O)cc3)c(-c3ccccc3)c2n1"
assay_system = "Estrogen receptor beta (Homo sapiens) (UniProt Q92731)"
result_comparator = "="
value = 0.11

[[record]]
smiles_string = "c1ccc(-c2nn3cccnc3c2-c2ccccc2)cc1"
assay_system = "Estrogen receptor beta (Homo sapiens) (UniProt Q92731)"
result_comparator = "<"
value = 0.01

[[record]]
smiles_string = "Oc1ccc(-c2c(-c3ccccc3)nn3c(C(F)(F)F)cc(C(F)(F)F)nc23)cc1"
assay_system = "Estrogen receptor beta (Homo sapiens) (UniProt Q92731)"
result_comparator = "="
value = 0.05

[[record]]
smiles_string = "Cc1cc(C)n2nc(-c3ccccc3)c(-c3ccccc3)c2n1"
assay_system = "Estrogen receptor beta (Homo sapiens) (UniProt Q92731)"
result_comparator = "<"
value = 0.01

[[record]]
smiles_string = "Oc1ccc(-c2c(-c3ccccc3)nn3c(-c4ccccc4)cc(-c4ccccc4)nc23)cc1"
assay_system = "Estrogen receptor beta (Homo sapiens) (UniProt Q92731)"
result_comparator = "<"
value = 0.01

[[record]]
smiles_string = "Oc1ccc(-c2c(-c3ccccc3)nn3cccnc23)cc1"
assay_system = "Estrogen receptor beta (Homo sapiens) (UniProt Q92731)"
result_comparator = "="
value = 0.05

[[record]]
smiles_string = "Cc1cc(C)n2nc(-c3ccc(O)cc3)c(-c3cccc(O)c3)c2n1"
assay_system = "Estrogen receptor beta (Homo sapiens) (UniProt Q92731)"
result_comparator = "<"
value = 0.01

[[record]]
smiles_string = "Oc1ccc(-c2nn3c(-c4ccccc4)cc(-c4ccccc4)nc3c2-c2ccc(O)cc2)cc1"
assay_system = "Estrogen receptor beta (Homo sapiens) (UniProt Q92731)"
result_comparator = "="
value = 0.03

[[record]]
smiles_string = "Oc1ccc(-c2nn3cccnc3c2-c2cccc(O)c2)cc1"
assay_system = "Estrogen receptor beta (Homo sapiens) (UniProt Q92731)"
result_comparator = "<"
value = 0.01

[[record]]
smiles_string = "CCc1cc(CC)n2nc(-c3cccc(O)c3)c(-c3ccc(O)cc3)c2n1"
assay_system = "Estrogen receptor beta (Homo sapiens) (UniProt Q92731)"
result_comparator = "<"
value = 0.01

[[record]]
smiles_string = "CCc1cc(CC)n2nc(-c3ccccc3)c(-c3ccc(O)cc3)c2n1"
assay_system = "Estrogen receptor beta (Homo sapiens) (UniProt Q92731)"
result_comparator = "="
value = 0.05

[[record]]
smiles_string = "Cc1nc2c(-c3ccc(O)cc3)c(-c3cccc(O)c3)nn2c(C)c1C"
assay_system = "Estrogen receptor beta (Homo sapiens) (UniProt Q92731)"
result_comparator = "<"
value = 0.01

[[record]]
smiles_string = "CCc1cc(CC)n2nc(-c3ccc(O)cc3)c(-c3ccc(O)cc3)c2n1"
assay_system = "Estrogen receptor beta (Homo sapiens) (UniProt Q92731)"
result_comparator = "="
value = 0.07

[[record]]
smiles_string = "Oc1ccc(-c2nn3c(-c4ccccc4)cc(-c4ccccc4)nc3c2-c2ccccc2)cc1"
assay_system = "Estrogen receptor beta (Homo sapiens) (UniProt Q92731)"
result_comparator = "<"
value = 0.01

[[record]]
smiles_string = "Oc1ccc(-c2c(-c3cccc(O)c3)nn3c(-c4ccccc4)cc(-c4ccccc4)nc23)cc1"
assay_system = "Estrogen receptor beta (Homo sapiens) (UniProt Q92731)"
result_comparator = "<"
value = 0.01

[[record]]
smiles_string = "Oc1ccc(-c2nn3c(C(F)(F)F)cc(C(F)(F)F)nc3c2-c2ccc(O)cc2)cc1"
assay_system = "Estrogen receptor beta (Homo sapiens) (UniProt Q92731)"
result_comparator = "="
value = 1.7

[[record]]
smiles_string = "Cc1c(C(C)(C)C)nc2c(-c3ccccc3)c(-c3ccc(O)cc3)nn2c1C(C)(C)C"
assay_system = "Estrogen receptor beta (Homo sapiens) (UniProt Q92731)"
result_comparator = "="
value = 0.02

[[record]]
smiles_string = "Cc1c(C(C)(C)C)nc2c(-c3cccc(O)c3)c(-c3ccc(O)cc3)nn2c1C(C)(C)C"
assay_system = "Estrogen receptor beta (Homo sapiens) (UniProt Q92731)"
result_comparator = "="
value = 0.01

[[record]]
smiles_string = "Oc1ccc(-c2c(-c3cccc(O)c3)nn3c(C(F)(F)F)cc(C(F)(F)F)nc23)cc1"
assay_system = "Estrogen receptor beta (Homo sapiens) (UniProt Q92731)"
result_comparator = "="
value = 0.04

